Numbers sourced from paper PMC4660055.

measuredTarget: T1, PmrA R210A (Klebsiella pneumoniae, UniProt W9BNR5 1-223, R210A)
T1 sequence: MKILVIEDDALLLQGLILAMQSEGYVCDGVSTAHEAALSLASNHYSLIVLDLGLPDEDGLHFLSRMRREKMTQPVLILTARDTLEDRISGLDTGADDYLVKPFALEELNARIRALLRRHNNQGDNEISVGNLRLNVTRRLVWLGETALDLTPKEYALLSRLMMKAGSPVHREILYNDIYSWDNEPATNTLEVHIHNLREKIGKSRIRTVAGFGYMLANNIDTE
testDescription: fluorescence polarization; BeF3-, Mg2+ (activation); FP: 10 mM sodium phosphate, 15 mM NaCl, pH 7.0, 298 K, 6 nM FAM-DNA; proteins activated with 5.3 mM BeCl2, 35 mM NaF, 7 mM MgCl2. NMR: 20 mM Tris-HCl, 100 mM Na
readoutLabel: pKd
On this scale, pKd is minus log10 of a concentration expressed in M (mol/L).

Data request: Entry 25-bp FAM-labelled DNA (FP) (dsDNA) DNA 1: ATTTCTTAATATTATCCTAAGCAAG DNA 2: TTGCTTAGGATAATATTAAGAAATC : reported pKd = ?
Data returned: 5.52
